system.under.test: NPR-B (Mus musculus)
Construct: Murine NIH3T3 cells express endogenously the CNP signaling receptor, NPR-B; endogenous in cells; host or cells: NIH3T3 (murine fibroblasts)
assay: Stimulation of cGMP production in NIH3T3 cells
Type: cell-based, Murine
assay.context: NIH3T3 cells; 1 uM natriuretic peptide; normalized to cell number and cGMP production with 1 uM wtCNP22; read-out: cGMP Response rel. to 1 uM CNP22, 1 uM
Bridge positions count the residues as written; N and C are the ends. Peptide text beside a SMILES is read from it.
measure: cGMP response relative to 1 uM CNP22 (%) at 1 µM

[[record]]
compound = "CC[C@H](C)[C@@H]1NC(=O)[C@H](CCCNC(=N)N)NC(=O)[C@H](CC(=O)O)NC(=O)[C@H](CC(C)C)NC(=O)[C@H](CCC(N)=O)NC(=O)[C@H](CC(C)C)NC(=O)CNC(=O)[C@H](Cc2ccccc2)NC(=O)[C@@H](NC(=O)CNC(=O)[C@H](CCCNC(=N)N)NC(=O)[C@H](CO)NC(=O)[C@H](CC(C)C)NC(=O)CN)CSSC[C@@H](C(=O)O)NC(=O)CNC(=O)[C@H](CC(C)C)NC(=O)CNC(=O)[C@H](CO)NC(=O)[C@H](CCSC)NC(=O)[C@H](CO)NC(=O)CNC1=O [BG] (H-GLSRGCFGLQLDRIGSMSGLGC-OH; disulfide 6-22)"
number = 45


###

system.under.test: NPR-B (Mus musculus)
Construct: Murine NIH3T3 cells express endogenously the CNP signaling receptor, NPR-B; endogenous in cells; host or cells: NIH3T3 (murine fibroblasts)
Sequence (Q6VVW5 17-1047): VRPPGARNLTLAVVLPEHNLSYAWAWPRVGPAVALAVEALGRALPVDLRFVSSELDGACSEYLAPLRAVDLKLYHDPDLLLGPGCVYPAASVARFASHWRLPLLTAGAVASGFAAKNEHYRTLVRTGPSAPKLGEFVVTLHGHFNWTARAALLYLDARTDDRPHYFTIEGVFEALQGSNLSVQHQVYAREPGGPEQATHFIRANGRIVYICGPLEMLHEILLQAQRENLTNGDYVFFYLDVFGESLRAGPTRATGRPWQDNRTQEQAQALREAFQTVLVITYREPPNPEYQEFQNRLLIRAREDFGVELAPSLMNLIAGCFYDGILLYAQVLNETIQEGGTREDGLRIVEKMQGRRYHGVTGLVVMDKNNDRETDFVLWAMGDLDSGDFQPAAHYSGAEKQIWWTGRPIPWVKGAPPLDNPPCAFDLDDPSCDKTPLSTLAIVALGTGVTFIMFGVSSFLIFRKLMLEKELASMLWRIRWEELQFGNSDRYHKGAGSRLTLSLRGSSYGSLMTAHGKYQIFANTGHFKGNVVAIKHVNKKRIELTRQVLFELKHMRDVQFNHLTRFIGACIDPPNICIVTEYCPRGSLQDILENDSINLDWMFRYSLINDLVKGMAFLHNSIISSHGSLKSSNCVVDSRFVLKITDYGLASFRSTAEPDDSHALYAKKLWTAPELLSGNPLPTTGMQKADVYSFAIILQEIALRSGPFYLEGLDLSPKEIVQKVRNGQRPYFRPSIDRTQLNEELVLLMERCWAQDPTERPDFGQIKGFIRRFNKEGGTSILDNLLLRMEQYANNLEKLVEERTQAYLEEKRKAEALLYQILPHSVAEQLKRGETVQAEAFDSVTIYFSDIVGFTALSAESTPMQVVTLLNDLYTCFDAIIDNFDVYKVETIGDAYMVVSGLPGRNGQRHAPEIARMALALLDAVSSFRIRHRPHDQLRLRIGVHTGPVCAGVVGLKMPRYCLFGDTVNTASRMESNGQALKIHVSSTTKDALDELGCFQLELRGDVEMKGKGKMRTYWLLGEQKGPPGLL
assay: Stimulation of cGMP production in NIH3T3 cells
Type: cell-based, Murine
assay.context: NIH3T3 cells; 10 nM natriuretic peptide; normalized to cell number and cGMP production with 1 uM wtCNP22; read-out: cGMP Response rel. to 1 uM CNP22, 10 nM
Bridge positions count the residues as written; N and C are the ends. Peptide text beside a SMILES is read from it.
measure: cGMP response relative to 1 uM CNP22 (%) at 0.01 µM

[[record]]
molecule = "CC[C@H](C)[C@@H]1NC(=O)[C@H](CCCNC(=N)N)NC(=O)[C@H](CC(=O)O)NC(=O)[C@H](CC(C)C)NC(=O)[C@H](CCCCN)NC(=O)[C@H]([C@@H](C)O)NC(=O)CNC(=O)[C@H](Cc2ccccc2)NC(=O)[C@@H](NC(=O)CNC(=O)[C@H](CCCNC(=N)N)NC(=O)[C@H](CO)NC(=O)[C@H](CC(C)C)NC(=O)CN)CSSC[C@@H](C(=O)O)NC(=O)CNC(=O)[C@H](CC(C)C)NC(=O)CNC(=O)[C@H](CO)NC(=O)[C@H](CCSC)NC(=O)[C@H](CO)NC(=O)CNC1=O [AD] (H-GLSRGCFGTKLDRIGSMSGLGC-OH; disulfide 6-22)"
unit_spec = "%"
number = 4


The reported measurements were obtained from patent US8377884B2.
